List of AGE Formation Ratio (% against the control value) values.
System: advanced glycosylated end products (AGE)
Experiment: AGE formation inhibition: bovine serum albumin incubated with D-glucose, fluorescence measurement (method of Brownlee et al.)
Type: biochemical
Details: Concentration of test specimen: 0.5 mM; bovine serum albumin 20%, D-glucose 100 mM, 0.5M phosphate buffer pH 7.4, 37° C for 7 days; fluorescence 370/440 nm; control = 100%
Marks after values point to notes of the source that are not given here.
MEASUREMENT TYPE: AGE Formation Ratio (% against the control value)

COMPOUND	OBSERVED VALUE
O=C(NC(=S)Nc1nc(-c2ccc3c(c2)CCCC3)cs1)c1ccc2c(c1)CCCC2 [Example 60]	17^2) %
CCc1sc(NC(=S)NC(=O)c2ccccc2)nc1-c1ccc2c(c1)CCCC2 [Example 20]	0^2) %
O=C(NC(=S)Nc1nc(-c2ccc3c(c2)CCCC3)cs1)c1ccncc1 [Example 31]	53^2) %
O=C(NC(=S)Nc1nc(-c2ccc3c(c2)CCCC3)cs1)c1ccc(F)cc1 [Example 26]	34^2) %
O=C(NC(=S)Nc1nc(-c2ccc3c(c2)CCCC3)cs1)c1ccccc1 [Example 1]	43^2) %

* * *

System: advanced glycosylated end products (AGE)
Experiment: AGE formation inhibition: bovine serum albumin incubated with D-glucose, fluorescence measurement (method of Brownlee et al.)
Type: biochemical
Settings: Concentration of test specimen: 0.5 mM; bovine serum albumin 20%, D-glucose 100 mM, 0.5M phosphate buffer pH 7.4, 37° C for 7 days; fluorescence 370/440 nm; control = 100%
Marks after values point to notes of the source that are not given here.
MEASUREMENT TYPE: AGE Formation Ratio (% against the control value)

COMPOUND	OBSERVED VALUE
O=C(NC(=S)Nc1nc(-c2ccc3ccccc3c2)cs1)c1ccccc1 [Example 15]	46^2) %
CC(C)c1sc(NC(=S)NC(=O)c2ccccc2)nc1-c1ccc2c(c1)CCCC2 [Example 21]	19^2) %
Cc1ccc(C)c(C(=O)NC(=S)Nc2nc(-c3ccc4c(c3)CCCC4)cs2)c1 [Example 42]	35^2) %
O=C(NC(=S)Nc1nc(-c2ccc3c(c2)CCCC3)cs1)c1ccc2ccccc2c1 [Example 34]	0^2) %

Recorded values, source patent EP0369453A2.
